Task for the reader: assign each of the following molecules its reported CC50.
# ASSAY NOTES: Cytotoxicity (CC50) in mock-infected H1-HeLa cells, XTT dye reduction
# Assay type: cell-based, human
# CONDITION NOTES: human, H1-HeLa cells, uninfected (mock-infected); line of CVB2
# Procedure: In this cell protection assay, the ability of compounds to protect cells against HRV infection was measured by the XTT dye reduction method, which is described in Weislow et al., J. Natl. Cancer Inst. […] Two days later, XTT/PMS was added to test plates and the amount of formazan produced was quantified spectrophotometrically at 450/650 nm. […] The therapeutic index (TI) was calculated by dividing the CC50 value by the EC50 value. […]

Write down CC50 measured for item Cc1cc(C(=O)Nc2cccn([C@@H](Cc3ccc(F)c(F)c3)C(=O)N[C@H](/C=C/C(=O)OC(C)C)C[C@@H]3CCNC3=O)c2=O)no1 [Compound 48] > 10 µM

Write down CC50 measured for item C#CC[C@@H](C(=O)N[C@H](/C=C/C(=O)OC1CCC1)C[C@@H]1CCNC1=O)n1cccc(NC(=O)c2cc(C)on2)c1=O [Compound 53] > 10 µM

Specify reported CC50 for the molecule shown: CCOC(=O)/C=C/[C@H](C[C@@H]1CCNC1=O)NC(=O)[C@H](Cc1ccc(F)c(F)c1)n1cccc(NC(=O)c2cc(C)on2)c1=O [Compound 33] > 10 µM

###

# System: HRV-14
# ASSAY NOTES: Antirhinoviral H1-HeLa cell culture assay (XTT cell protection, EC50), HRV-14
# Assay type: cell-based, human rhinovirus (HRV) serotype-14 in H1-HeLa cells
# CONDITION NOTES: Rhinovirus B, HRV14, H1-HeLa
t if EC50 is below 60 nM. f if not; exact matches included in f.

Please determine if CC[C@@H](C(=O)N[C@H](/C=C/C(=O)OC1CCC1)C[C@@H]1CCNC1=O)n1cccc(NC(=O)c2cc(C)on2)c1=O is below 60 nM in terms of EC50. t

Hi there! Is EC50 for C#CC[C@@H](C(=O)N[C@H](/C=C/C(=O)OCC)C[C@@H]1CCNC1=O)n1cccc(NC(=O)c2cc(C)on2)c1=O below 60 nM, do you know? t

Is it true that EC50 reported for CCOC(=O)/C=C/[C@H](C[C@@H]1CCNC1=O)NC(=O)[C@H](Cc1ccc(F)cc1)n1cccc(NC(=O)c2cc(C)on2)c1=O is less than 60 nM? t

Input CC[C@@H](C(=O)N[C@H](/C=C/C(=O)OC1CCCCC1)C[C@@H]1CCNC1=O)n1cccc(NC(=O)c2cc(C)on2)c1=O ; condition: EC50 strictly below 60 nM. Does it hold? f

Just wondering, is EC50 of C#CC[C@@H](C(=O)N[C@H](/C=C/C(=O)OC1CCCC1)C[C@@H]1CCNC1=O)n1cccc(NC(=O)c2cc(C)on2)c1=O below 60 nM? t

A record lists C#CC[C@@H](C(=O)N[C@H](/C=C/C(=O)OC1CCC1)C[C@@H]1CCNC1=O)n1cccc(NC(=O)c2cc(C)on2)c1=O . Is its EC50 below 60 nM? t

Could you please tell me whether EC50 recorded for C#CC[C@@H](C(=O)N[C@H](/C=C/C(=O)OC1CCCCCC1)C[C@@H]1CCNC1=O)n1cccc(NC(=O)c2cc(C)on2)c1=O is less than 60 nM? f

Confirm or reject: EC50 of C#CC[C@@H](C(=O)N[C@H](/C=C/C(=O)OC(C)C)C[C@@H]1CCNC1=O)n1cccc(NC(=O)c2cc(C)on2)c1=O lies strictly below 60 nM f

In the record for C#CC[C@@H](C(=O)N[C@H](/C=C/C(=O)OC(C)(C)C)C[C@@H]1CCNC1=O)n1cccc(NC(=O)c2cc(C)on2)c1=O , is EC50 less than 60 nM? f

Is EC50 strictly under 60 nM for the entry Cc1cc(C(=O)Nc2cccn([C@@H](Cc3ccc(F)cc3)C(=O)N[C@H](/C=C/C(=O)OC(C)C)C[C@@H]3CCNC3=O)c2=O)no1 ? t

Please state whether EC50 is below 60 nM for CCOC(=O)/C=C/[C@H](C[C@@H]1CCNC1=O)NC(=O)[C@H](CC)n1cccc(NC(=O)c2cc(C)on2)c1=O t

EC50 under 60 nM? Item: Cc1cc(C(=O)Nc2cccn([C@@H](Cc3ccc(F)c(F)c3)C(=O)N[C@H](/C=C/C(=O)OC(C)C)C[C@@H]3CCNC3=O)c2=O)no1 t

###

# Test system: H1-HeLa cells
# ASSAY NOTES: Cytotoxicity (CC50) in mock-infected H1-HeLa cells, XTT dye reduction
# Format: cell-based, human
# CONDITION NOTES: line of HRV-16
VALUE KIND: CC50

Supply reported CC50 belonging to this compound: C#CC[C@@H](C(=O)N[C@H](/C=C/C(=O)OC1CCC1)C[C@@H]1CCNC1=O)n1cccc(NC(=O)c2cc(C)on2)c1=O [Compound 53] > 10 µM

Input Cc1cc(C(=O)Nc2cccn(C(Cc3ccc(F)c(F)c3)C(=O)N[C@H](/C=C/C(=O)OCC(C)(C)C)C[C@@H]3CCNC3=O)c2=O)no1 (relative stereo) [Compound 47] , output reported CC50. > 10 µM

Give the reported value of CC50 for this record: C#CC[C@@H](C(=O)N[C@H](/C=C/C(=O)OCC)C[C@@H]1CCNC1=O)n1cccc(NC(=O)c2cc(C)on2)c1=O [Compound 31] > 10 µM

Provide only the value of recorded CC50 for C#CC[C@@H](C(=O)N[C@H](/C=C/C(=O)OC1CCCC1)C[C@@H]1CCNC1=O)n1cccc(NC(=O)c2cc(C)on2)c1=O [Compound 40] > 10 µM

Please look at this compound and report its CC50: CC[C@@H](C(=O)N[C@H](/C=C/C(=O)OC(C)C)C[C@@H]1CCNC1=O)n1cccc(NC(=O)c2cc(C)on2)c1=O [Compound 52] > 10 µM

Please report the measured CC50 for C#CC[C@@H](C(=O)N[C@H](/C=C/C(=O)OC(C)C)C[C@@H]1CCNC1=O)n1cccc(NC(=O)c2cc(C)on2)c1=O [Compound 50] > 10 µM

###

# Test system: H1-HeLa cells
# ASSAY NOTES: Cytotoxicity (CC50) in mock-infected H1-HeLa cells, XTT dye reduction
# Type: cell-based, human
# CONDITION NOTES: line of CVB5
VALUE KIND: CC50

Entry Cc1cc(C(=O)Nc2cccn([C@@H](Cc3ccc(F)c(F)c3)C(=O)N[C@H](/C=C/C(=O)OC(C)C)C[C@@H]3CCNC3=O)c2=O)no1 needs its CC50 filled in; supply it. > 10 µM

For the compound C#CC[C@@H](C(=O)N[C@H](/C=C/C(=O)OC1CCC1)C[C@@H]1CCNC1=O)n1cccc(NC(=O)c2cc(C)on2)c1=O , report CC50. > 10 µM

Please supply the value of reported CC50 for the item C#CC[C@@H](C(=O)N[C@H](/C=C/C(=O)OC(C)(C)C)C[C@@H]1CCNC1=O)n1cccc(NC(=O)c2cc(C)on2)c1=O > 10 µM

Specify reported CC50 for the compound shown: C#CC[C@@H](C(=O)N[C@H](/C=C/C(=O)OCC)C[C@@H]1CCNC1=O)n1cccc(NC(=O)c2cc(C)on2)c1=O > 10 µM

Give CC50 for the following compound: CCOC(=O)/C=C/[C@H](C[C@@H]1CCNC1=O)NC(=O)[C@H](CC)n1cccc(NC(=O)c2cc(C)on2)c1=O > 10 µM

Please report CC50 for the following compound: CCOC(=O)/C=C/[C@H](C[C@@H]1CCNC1=O)NC(=O)[C@H](Cc1ccc(F)c(F)c1)n1cccc(NC(=O)c2cc(C)on2)c1=O > 10 µM

###

# System: H1-HeLa cells
# ASSAY NOTES: Cytotoxicity (CC50) in mock-infected H1-HeLa cells, XTT dye reduction
# Assay type: cell-based, human
# CONDITION NOTES: line of HRV-39
# Procedure: In this cell protection assay, the ability of compounds to protect cells against HRV infection was measured by the XTT dye reduction method, which is described in Weislow et al., J. Natl. Cancer Inst. […] Two days later, XTT/PMS was added to test plates and the amount of formazan produced was quantified spectrophotometrically at 450/650 nm. […] The therapeutic index (TI) was calculated by dividing the CC50 value by the EC50 value. […]
VALUE KIND: CC50

Please report CC50 for the following compound: CCOC(=O)/C=C/[C@H](C[C@@H]1CCNC1=O)NC(=O)[C@@H]1CCc2ccc(NC(=O)c3cc(C)on3)c(=O)n21 > 10 µM

// fetch CC50 given entry Cc1cc(C(=O)Nc2cccn([C@@H](Cc3ccc(F)c(F)c3)C(=O)N[C@H](/C=C/C(=O)OC3CCCCC3)C[C@@H]3CCNC3=O)c2=O)no1 > 10 µM

Determine from records and report CC50 for C#CC[C@@H](C(=O)N[C@H](/C=C/C(=O)OC1CCC1)C[C@@H]1CCNC1=O)n1cccc(NC(=O)c2cc(C)on2)c1=O > 10 µM

Return reported CC50. Input compound: C#CC[C@@H](C(=O)N[C@H](/C=C/C(=O)OCC(C)(C)C)C[C@@H]1CCNC1=O)n1cccc(NC(=O)c2cc(C)on2)c1=O (relative stereo) > 10 µM

For CCC(C(=O)N[C@H](/C=C/C(=O)OCC(C)(C)C)C[C@@H]1CCNC1=O)n1cccc(NC(=O)c2cc(C)on2)c1=O (relative stereo) , write its CC50. > 10 µM

Respond only with CC50 recorded for CCOC(=O)/C=C/[C@H](C[C@@H]1CCNC1=O)NC(=O)[C@H](CC)n1cccc(NC(=O)c2cc(C)on2)c1=O > 10 µM
